Target: NAD-dependent deacetylase Sirtuin 1 (human, UniProt Q96EB6)
Sequence (Q96EB6 2-747 limits assumed): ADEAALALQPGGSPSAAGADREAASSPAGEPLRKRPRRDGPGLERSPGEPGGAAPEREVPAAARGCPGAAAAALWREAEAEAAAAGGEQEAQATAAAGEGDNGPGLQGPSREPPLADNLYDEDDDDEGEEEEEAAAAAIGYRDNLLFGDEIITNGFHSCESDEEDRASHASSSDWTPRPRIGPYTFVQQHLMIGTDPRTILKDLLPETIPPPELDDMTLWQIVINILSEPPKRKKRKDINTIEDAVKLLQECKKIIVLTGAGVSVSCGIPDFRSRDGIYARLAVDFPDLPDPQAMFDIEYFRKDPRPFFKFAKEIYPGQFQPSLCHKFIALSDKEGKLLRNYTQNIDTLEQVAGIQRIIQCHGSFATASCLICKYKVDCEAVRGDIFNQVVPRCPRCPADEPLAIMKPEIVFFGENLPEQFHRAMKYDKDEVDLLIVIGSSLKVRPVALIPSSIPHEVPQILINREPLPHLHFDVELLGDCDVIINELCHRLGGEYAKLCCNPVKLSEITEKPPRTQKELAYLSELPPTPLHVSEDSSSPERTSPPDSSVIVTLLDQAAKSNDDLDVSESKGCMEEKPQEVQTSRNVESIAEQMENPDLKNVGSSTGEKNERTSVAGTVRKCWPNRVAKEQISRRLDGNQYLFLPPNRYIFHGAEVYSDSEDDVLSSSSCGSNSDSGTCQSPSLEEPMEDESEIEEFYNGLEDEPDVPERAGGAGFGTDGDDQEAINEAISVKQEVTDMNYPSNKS
Experiment: primary screen, delta tm
Parameters: single well (n = 1)
Conditions: 10 µM
Over roughly 3,200 compounds, “TSA(without NAD+) / Primary screening (TSA) / delta Tm (K)” has its median near -0.07; the highest 2% begin near 0.37. Many of the other results were omitted from the sample, so the highest values are more common in it than they were.
Threshold check on TSA(without NAD+) / Primary screening (TSA) / delta Tm (K): at or above 0.09 K gives Met, strictly below gives Not met.

>>> category("COc1ccc(N2C(=O)/C(=C/NNC(=O)C34CC5CC(CC(C5)C3)C4)c3ccccc3C2=O)cc1")
"Met"
>>> category("c1ccc(-c2[nH]c3c(ccc4ccccc43)c2-c2ccccc2)cc1")
"Met"
>>> category("Cc1sc2nc(-c3cccs3)nc(N3CCC(C(N)=O)CC3)c2c1C")
"Met"
>>> category("O=C(CCl)c1c(-c2ccccc2)[nH]c2ccccc12")
"Not met"
>>> category("O=C1/C(=C/NNC(=O)C23CC4CC(CC(C4)C2)C3)c2ccccc2C(=O)N1Cc1ccccc1")
"Met"
>>> category("Cc1cccc2c(CC(=O)O)c(-c3ccccc3)[nH]c12")
"Not met"
>>> category("O=C1NC(=O)c2ccccc2/C1=C\\NNC(=O)C12CC3CC(CC(C3)C1)C2")
"Met"
>>> category("NC(=O)C1CCN(c2nc(-c3cccnc3)nc3sc4c(c23)CCCC4)CC1")
"Met"

---

Listed next: entries and their corresponding TSA(without NAD+) / Primary screening (TSA) / delta Tm (K).
Molecular target: NAD-dependent deacetylase Sirtuin 1 (human)
Experiment: primary screen, delta tm
Set-up: single well (n = 1)
Details: 10 µM
Whole data set: some 3,200 compounds, median “TSA(without NAD+) / Primary screening (TSA) / delta Tm (K)” near -0.07, cut for the highest 2% near 0.37. Only a selection was taken, and the highest values are over-represented in it overall.
Parameter: TSA(without NAD+) / Primary screening (TSA) / delta Tm (K)

>>> meas_value("O=C1/C(=C\\c2cc(Br)cc(Br)c2O)CC/C1=C\\c1cc(Br)cc(Br)c1O")
0.55
>>> meas_value("Cc1ccc(N(C)S(=O)(=O)c2cccc(C(=O)Nc3ccc4c(c3)C(=O)N(C)C4=O)c2)cc1")
0.45
>>> meas_value("CN(c1ccccc1)S(=O)(=O)c1cccc(NC(=O)CNc2cccc3ccccc23)c1")
0.17
>>> meas_value("NC(=O)C1CCN(c2nc(CN3CCCCC3)nc3sc4c(c23)CCC4)CC1")
0.07
>>> meas_value("O=c1cc(CSc2nnc(Nc3ccccc3)s2)c2ccc(O)cc2o1")
0.38
>>> meas_value("Cc1ccc(N(C)S(=O)(=O)c2cccc(C(=O)NCCc3c[nH]c4ccccc34)c2)cc1")
0.23
>>> meas_value("NC(=O)C1CCCN(c2ncnc3sc4c(c23)CCCC4)C1 (centres unmarked)")
-0.18
>>> meas_value("Cc1nc(N2CCN(c3cccc(C(F)(F)F)c3)CC2)c2c3c(sc2n1)CCC3")
0.16
>>> meas_value("NC(=O)c1ccc(CNC2CCCCCC2)o1")
-0.05
>>> meas_value("CN(c1ccccc1)S(=O)(=O)c1cccc(C(=O)Nc2ccccc2)c1")
0.12
>>> meas_value("Cc1sc2nc(CSc3ccccc3)nc(N3CCC(C(N)=O)CC3)c2c1C")
0.52
>>> meas_value("CSc1cccc(NC(=O)c2cccc(S(=O)(=O)N(C)c3ccc(C)cc3)c2)c1")
0.35
>>> meas_value("CC(c1ccc(S(N)(=O)=O)cc1)N(C)Cc1nc2ccccc2c(=O)[nH]1 (centres unmarked)")
-0.15
>>> meas_value("COc1ccc(N(C)S(=O)(=O)c2cccc(C(=O)Nc3cccc(C#N)c3)c2)cc1")
0.22
>>> meas_value("Cc1ccc(C(=O)Nc2nc3ccc(NS(=O)(=O)c4ccc5c(c4)CCC(=O)N5)cc3s2)s1")
0.66
>>> meas_value("Cc1ccc(N(C)S(=O)(=O)c2cccc(C(=O)Nc3cccc(C#N)c3)c2)cc1")
0.43
>>> meas_value("COCCNc1nnc(SCc2cc(=O)oc3c(C)c(O)ccc23)s1")
-0.74
>>> meas_value("O=C(NO)c1cccc(C(F)(F)F)c1")
-0.13
>>> meas_value("COc1ccc(Br)cc1/C=C1/Cc2ccccc2C1=O")
-0.08
>>> meas_value("CN(c1ccccc1)S(=O)(=O)c1cccc(C(=O)NCCc2c[nH]c3ccccc23)c1")
0.16
>>> meas_value("Cc1ccc([N+](=O)[O-])cc1S(=O)(=O)Nc1ccc(C(=O)OC(C)C(=O)NC23CC4CC(CC(C4)C2)C3)cc1 (centres unmarked)")
0.86
>>> meas_value("Cc1ccc(-c2cc(C(=O)OC(C)C(=O)Nc3cccc([N+](=O)[O-])c3)[nH]n2)cc1 (centres unmarked)")
0.12
>>> meas_value("CCC(N)C(N)=O (centres unmarked)")
-0.22
>>> meas_value("Cc1ccc(N(C)S(=O)(=O)c2cccc(C(=O)NNC(=O)c3ccncc3)c2)cc1")
-0.08
>>> meas_value("Cc1ccc(N(C)S(=O)(=O)c2cccc(C(=O)NNC(=O)CC34CC5CC(CC(C5)C3)C4)c2)cc1")
0.45
>>> meas_value("CN(c1ccccc1)S(=O)(=O)c1cccc(NC(=O)CCCc2c[nH]c3ccccc23)c1")
0.52
>>> meas_value("COc1cc(C(C)=O)ccc1COc1ccc(C(=O)OC(C)C(=O)NC23CC4CC(CC(C4)C2)C3)cc1OC (centres unmarked)")
0.05
>>> meas_value("CC(OC(=O)c1cccc(S(=O)(=O)NCc2ccccc2)c1)C(=O)NC12CC3CC(CC(C3)C1)C2 (centres unmarked)")
-0.03
>>> meas_value("Cc1nc(-c2ccccn2)[nH]c(=O)c1CC(=O)NCc1cccc(Oc2ccccc2)c1")
0.09
>>> meas_value("O=C(NCC1CCCO1)Nc1ccc(NC(=O)c2ccccn2)cc1 (centres unmarked)")
0.07
>>> meas_value("Cc1sc2nc(CN3CCCC3)nc(N3CCC(C(N)=O)CC3)c2c1C")
-0.12
>>> meas_value("CC(NC(=O)CNC(=O)CNC(=O)c1cccs1)c1ccccn1 (centres unmarked)")
-0.23
>>> meas_value("Cc1ccc(C(=O)NNC(=O)c2cccc(S(=O)(=O)N(C)c3ccc(C)cc3)c2)cc1")
-0.14
>>> meas_value("O=C1CCCN1C(=O)Cn1cnc2cc(Cl)ccc2c1=O")
-0.11
>>> meas_value("COc1ccc(/C=N/c2ccc(C(=O)O)cc2)cc1Br")
0.07
>>> meas_value("Cc1nc(-c2ccc(CCNC(=O)c3ccc(NC(=O)c4cccs4)cc3)s2)cs1")
0.63
>>> meas_value("NC(=O)C1CCN(c2nc(CSc3ccccc3)nc3sc4c(c23)CCCC4)CC1")
1.78
>>> meas_value("Cc1nc(-c2ccc(CCNC(=O)c3ccc(NC(N)=O)cc3)s2)cs1")
0.23
>>> meas_value("CC1CCc2[nH]c3ccc(C(=O)Nc4cccc(S(=O)(=O)N(C)c5ccccc5)c4)cc3c2C1 (centres unmarked)")
0.42
>>> meas_value("CC(Nc1cccc(C(N)=O)c1)C1CN(Cc2ccccc2)CCO1 (centres unmarked)")
-0.18
>>> meas_value("CC(=C/c1ccccc1)/C=N/NC(=O)c1cc(-c2ccc(C)cc2)n[nH]1")
1.06
